Data provenance is patent US20080219970A1.

EXPERIMENTAL_TARGET: T1, kallikrein (UniProt P03952 20-638)
T1 construct: also called plasma kallikrein
T1 sequence (P03952 20-638 limits assumed): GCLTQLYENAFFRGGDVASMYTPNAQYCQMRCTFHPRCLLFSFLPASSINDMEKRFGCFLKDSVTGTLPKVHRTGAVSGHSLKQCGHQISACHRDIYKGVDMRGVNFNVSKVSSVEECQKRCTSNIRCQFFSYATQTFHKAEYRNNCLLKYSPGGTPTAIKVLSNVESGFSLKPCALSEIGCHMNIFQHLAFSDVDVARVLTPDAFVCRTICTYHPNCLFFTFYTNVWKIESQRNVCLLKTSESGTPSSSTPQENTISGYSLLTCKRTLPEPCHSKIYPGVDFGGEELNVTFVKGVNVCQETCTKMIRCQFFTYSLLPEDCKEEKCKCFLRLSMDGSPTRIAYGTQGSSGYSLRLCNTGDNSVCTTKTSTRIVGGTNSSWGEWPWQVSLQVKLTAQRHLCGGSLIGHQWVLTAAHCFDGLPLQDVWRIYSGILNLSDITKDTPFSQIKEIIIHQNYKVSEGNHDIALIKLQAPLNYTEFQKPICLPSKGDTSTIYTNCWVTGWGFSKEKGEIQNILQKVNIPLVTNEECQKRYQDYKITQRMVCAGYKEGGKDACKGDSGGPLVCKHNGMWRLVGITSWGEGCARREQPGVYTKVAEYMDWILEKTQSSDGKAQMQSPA
ASSAY_PROCEDURE: SPR kinetics (BIAcore 3000), Ir-CPI immobilized at about 200 RU, analyte at 6 concentrations from 5 nM to 300 nM
MEASURED_PROPERTY: Kd (nM)
Numbers only, in nM.

Look up Kd for this binder: Ir-CPI (Ixodes ricinus Contact Phase Inhibitor), recombinant, without its peptide signal (other, Immobilized on a CM5 chip by amine coupling for SPR; also called recombinant Ir-CPI) ANHKGRGRPAKCKLPPDDGPCRARIPSYYFDRKTKTCKEFMYGGCEGNENNFENITTCQEECRAKKV 200
